Source: patent US20220282217A1

# Experimental system: T1, HLA-A02.01 (human)
# T1 construct: Purified class I MHC
# Assay explanation: competition with radiolabeled reference peptide, purified MHC I
Observable: IC50 (nM)
Number only, in nM; omit the unit.

LLAFWDSQV (also called TP53, AAVG) ... 68
ALSEHCPTT (also called TP53, CSES) ... 79
FVMSDTTYKI (also called TTK(-1)) ... 62.4

In the following, a different binder is considered.
Field IC50 (entry YMCNSSCMGS (also called TP53, G245S) ) reads 81
